- TESTED SYSTEM: T1, human serum albumin (human, UniProt P02768 25-609)
- T1 construct: also called HSA
- ASSAY REMARKS: SPR (Biacore 3000), HSA on chip, Fc-ABDEG fusion, pH 7.4
MEASURED ENDPOINT: R0 pH 7.4 (RU)
Write the answer as a number in RU, unit excluded.

[[record]]
binder = "11C03 parental fused at the C-terminus of Fc-ABDEG (Fc fusion, not shown: a dimerising Fc or GST; small tags and cut ends) QLQVVESGGGLVQAGGSLRLSCAASERTFVAYPMGWFRQAPEKEREFVAGISWFAGATTDYADSVEGRFTISRDNAKNTAYLQMNNLKPEDTAVYYCAISHQLPGGRPGRDMDSYSYWGHGTQVTVSS"
recorded_result = 57


Query: R0 pH 7.4; subject: 11C03 CDR2-V4 fused at the C-terminus of Fc-ABDEG (Fc fusion, not shown: a dimerising Fc or GST; small tags and cut ends) QLQVVESGGGLVQAGGSLRLSCAASERTFVAYPMGWFRQAPEKEREFVAGISAFAGATTDYADSVEGRFTISRDNAKNTAYLQMNNLKPEDTAVYYCAISHQLPGGRPGRDMDSYSYWGHGTQVTVSS
0.826

Query: R0 pH 7.4; subject: 11C03 CDR2-V12 fused at the C-terminus of Fc-ABDEG (Fc fusion, not shown: a dimerising Fc or GST; small tags and cut ends) QLQVVESGGGLVQAGGSLRLSCAASERTFVAYPMGWFRQAPEKEREFVAGISWFAGATTDAADSVEGRFTISRDNAKNTAYLQMNNLKPEDTAVYYCAISHQLPGGRPGRDMDSYSYWGHGTQVTVSS
1.5

src = patent US20250223342A1
